Cited source: patent US4460560A

- Run description: Time-survival response, trypan blue viability
- Format: cell-based
- Measurement parameters: rat, hepatocytes; 12 hours; 10^-6 M
Experimental readout: viability at 12 h, 1 µM (%)
Write the answer as a number in %, unit excluded.

### Prompt Fill in reported viability at 12 h, 1 µM for this entry: COc1cccc2c1C(=O)c1c(O)c3c(c(O)c1C2=O)C[C@@](O)(C(=O)CO)C[C@@H]3O[C@H]1C[C@H](N)[C@H](O)[C@H](C)O1 [Free doxorubicin, doxorubicin]
### Response 72

----------
- Run description: Time-survival response, trypan blue viability
- Assay type: cell-based
- Measurement parameters: rat, hepatocytes; 2 hours; 10^-6 M
- Method: Male Fischer 344 rats weighing 150 to 200 g were used to obtain viable hepatocytes. The animals were fed a basal, high-casein diet. A 12-hr light cycle was maintained in the animal colony and water was given ad libitum. […] Liver cell suspensions were prepared by the collagenase perfusion technique. […] Viability was assessed by trypan blue exclusion and perfusates containing less than 65% viable cells were not used. […] The medium was removed and the number of viable cells was counted. […]
Experimental readout: viability at 2 h, 1 µM (%)
Write the answer as a number in %, unit excluded.

### Prompt Fill in reported viability at 2 h, 1 µM for this entry: COc1cccc2c1C(=O)c1c(O)c3c(c(O)c1C2=O)C[C@@](O)(C(=O)CO)C[C@@H]3O[C@H]1C[C@H](N)[C@H](O)[C@H](C)O1 [Free doxorubicin, doxorubicin]
### Response 99
